For each of the molecules below, state its half-life.
- ASSAY COMMENT: Half life in immunocompromized SKH1 mouse plasma at 50 mg/kg, sc
- Format: ADME, organism-based
- Set-up: dose 50 mg/kg, route subcutaneous

1) Nc1nc(/C(=N/O)C(=O)N[C@@H]2C(=O)N3C(C(=O)O)=C(/C=C4\CCN([C@@H]5CCNC5)C4=O)CS[C@H]23)ns1 ... 13 min

Now take the following molecule into account.
For the molecule C[C@@H](O)[C@H]1C(=O)N2C(C(=O)O)=C(S[C@@H]3CN[C@H](C(=O)N(C)C)C3)[C@H](C)[C@H]12 , report half-life. 8.6 min
